These measurements were taken from patent US6737383B1.

Reported Redroot pigweed plant response rating is given for each of the following compounds.
Test system: pigweed
Experiment: Test B pre/postemergence pigweed
Type: in vivo, Amaranthus retroflexus
Conditions: Preemergence, Rate 62 g/ha; scale 0 to 10 (0 no effect, 10 complete control)
Note: the reply should be a number with no unit written.

Examples from the recorded data:
INSERT INTO measurements (smiles_input, system_tested, property, endpoint_value) VALUES
  ('Cc1ccccc1Cn1c(=O)on(C(=O)N(c2ccc(F)cc2F)C(C)C)c1=O', 'pigweed', 'Redroot pigweed plant response rating', 4),
  ('COCCn1c(=O)on(C(=O)N(c2ccc(F)cc2F)C(C)C)c1=O', 'pigweed', 'Redroot pigweed plant response rating', 8),
  ('CCn1c(=O)on(C(=O)N(c2ccccc2)C(C)C)c1=O', 'pigweed', 'Redroot pigweed plant response rating', 9),
  ('CC(C)N(C(=O)n1oc(=O)n(CC2CCC2)c1=O)c1ccccc1', 'pigweed', 'Redroot pigweed plant response rating', 9),
  ('CCN(CC)C(=O)Cn1c(=O)on(C(=O)N(c2ccccc2)C(C)C)c1=O', 'pigweed', 'Redroot pigweed plant response rating', 0),
  ('Cc1ccccc1-n1c(=O)on(C(=O)N(c2cc(F)cc(F)c2)C(C)C)c1=O', 'pigweed', 'Redroot pigweed plant response rating', 4),
  ('C=CCn1c(=O)on(C(=O)N(c2ccc(F)cc2F)C(C)C)c1=O', 'pigweed', 'Redroot pigweed plant response rating', 10),
  ('CC(C)N(C(=O)n1oc(=O)n(C(C)C)c1=O)c1ccc(F)cc1', 'pigweed', 'Redroot pigweed plant response rating', 7);

// CC(C)N(C(=O)n1oc(=O)n(-c2ccnn2C)c1=O)c1ccc(F)cc1 : Redroot pigweed plant response rating value = 0

// CC(C)N(C(=O)n1oc(=O)n(C(C)C)c1=O)c1ccc(Cl)cc1 : Redroot pigweed plant response rating value = 5
